Data origin, for the record: PubChem BioAssay (NCI)

# System: OVCAR-3 ovarian
# test.summary: NCI tumour cell line growth inhibition, 48 h
# TGI per record follows
readout.kind: TGI

>>> data_value("COc1cc(C(=O)NC2CCN(C)CC2)c(F)cc1Nc1ncc2c(n1)N(C1CCCC1)CC(F)(F)C(=O)N2C")
"5.87 µM"
>>> data_value("COC(=O)c1c(O)ccc2c1c1c(n2Cc2cccc(C)c2)C(=O)c2ccccc2C1=O")
"22.8 µM"
>>> data_value("CCOC(=O)NC(=O)c1cn(CCN2CCN(c3ncnc4nc[nH]c34)CC2)c(=O)[nH]c1=O")
"> 100 µM"
>>> data_value("C/C(CC(=O)Nc1ccc(Cl)cc1)=N\\NC(N)=S")
"> 100 µM"
>>> data_value("COc1c2c(nc3ccccc13)-c1cc3c(c(=O)n1C2)COC(=O)C3(O)CC(=O)N1CCOCC1 (stereo not drawn)")
"55 µM"
>>> data_value("CCNC(=O)c1cc(/C=C/c2ccc([N+](=O)[O-])o2)nc2ccccc12")
"> 100 µM"
>>> data_value("Cc1cc(Cl)ccc1NC(=O)CC/C(CC(=O)C(C)C)=N\\NC(=O)C[n+]1ccccc1")
"> 100 µM"
>>> data_value("O=C(NC[C@H](O)CO)c1ccncc1Nc1ccc(I)cc1F")
"> 100 µM"
>>> data_value("O=C(/C=C/c1ccc([N+](=O)[O-])cc1)c1ccc2c3c(cccc13)CC2")
"10.1 µM"
>>> data_value("O=C(c1cc(Cl)ccc1Cl)N1CCN(C(=O)c2cc(Cl)ccc2Cl)CC1")
"> 100 µM"
>>> data_value("[N-]=[N+]=NC(CI)c1cn([C@H]2C[C@H](O)[C@@H](CO)O2)c(=O)[nH]c1=O (stereo partly drawn)")
"> 100 µM"
>>> data_value("O=C(Cn1c(C(=O)/C=C/c2cccs2)nc2ccccc21)c1ccc(Cl)cc1")
"57.3 µM"
>>> data_value("O=C(Nc1ccc(Cl)cc1)Nc1ccc(Nc2nncc3ccccc23)cc1")
"10.3 µM"
>>> data_value("COC(=O)C(Cc1ccccc1)NP(=O)(O)OCC1OC(n2cc(F)c(=O)[nH]c2=O)CC1O (stereo not drawn)")
"> 100 µM"
>>> data_value("Cc1cccc(C(C)C)c1NC(=O)CC1C(=O)Nc2ccccc2S1(=O)=O (stereo not drawn)")
"38.5 µM"
>>> data_value("COc1ccc(/C=C2\\CCCC3=C2NC(N)=NC3c2ccc(OC)c(OC)c2)cc1OC (stereo not drawn)")
"> 100 µM"
>>> data_value("CCSCCCN(CCCSCC)CCCSCC")
"> 100 µM"
>>> data_value("CC1(C)CC(=O)c2c(nc3ccc4ccccc4c3c2-c2ccc(NC(=O)CCCCCCCCC(=O)Nc3ccc(-c4c5c(nc6ccc7ccccc7c46)CC(C)(C)CC5=O)cc3)cc2)C1")
"> 100 µM"
